All figures here come from patent US9731036.

# assayed.target: T1, CEACAM1-Ig fusion protein (extracellular portion of CEACAM1 fused to the Fc portion of human IgG1) (human, UniProt P13688 35-428)
# T1 construct: extracellular domain; Made in COS-7 cells, purified on protein G. A silent nucleotide change (A885G, glycine 281 unchanged) removes a BamHI site; also called CCM1-Ig; soluble CEACAM1-Ig; not shown: Fc portion of human IgG1
# T1 sequence (looked up): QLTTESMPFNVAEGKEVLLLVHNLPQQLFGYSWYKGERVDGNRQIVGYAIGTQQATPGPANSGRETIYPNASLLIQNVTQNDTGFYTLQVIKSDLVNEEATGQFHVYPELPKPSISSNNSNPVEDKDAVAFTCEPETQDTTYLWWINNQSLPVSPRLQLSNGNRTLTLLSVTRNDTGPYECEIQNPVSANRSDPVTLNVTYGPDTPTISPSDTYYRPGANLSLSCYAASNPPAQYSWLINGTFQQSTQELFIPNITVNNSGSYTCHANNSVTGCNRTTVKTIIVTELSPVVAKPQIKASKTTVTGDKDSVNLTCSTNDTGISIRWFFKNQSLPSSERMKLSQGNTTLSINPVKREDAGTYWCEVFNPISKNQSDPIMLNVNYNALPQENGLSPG
# assay.overview: flow cytometry on 721.221 transfectants
# Description: The staining of the secondary reagent FITC-conjugated goat anti-mouse F(ab_)2 of each cell type was used as background (_). The y-axis indicates the median fluorescence intensity (MFI). […] The y-axis indicates the median fluorescence intensity (MFI). […] The E:T cell ratio was 2:1. […]
value.type: binding result

binder | value.type | reported.result
CCM6-TailCCM1 (entire extracellular portion of CEACAM6 fused to the transmembrane and tail portions of CEACAM1) (receptor, human, UniProt P40199 35-320, looked up, extracellular domain;domain: transmembrane and tail portions) KLTIESTPFNVAEGKEVLLLAHNLPQNRIGYSWYKGERVDGNSLIVGYVIGTQQATPGPAYSGRETIYPNASLLIQNVTQNDTGFYTLQVIKSDLVNEEATGQFHVYPELPKPSISSNNSNPVEDKDAVAFTCEPEVQNTTYLWWVNGQSLPVSPRLQLSNGNMTLTLLSVKRNDAGSYECEIQNPASANRSDPVTLNVLYGPDVPTISPSKANYRPGENLNLSCHAASNPPAQYSWFINGTFQQSTQELFIPNITVNNSGSYMCQAHNSATGLNRTTVTMITVSGAIAGIVIGVVALVALIAVALACFLHFGKTGRASDQRDLTEHKPSVSNHTQDHSNDPPNKMNEVTYSTLNFEAQQPTQPTSASPSLTATEIIYSEVKKQ | binding result | no binding
CCM6-S43R (CEACAM6 with 43S changed to 43R) (receptor, human, UniProt P40199 35-320, looked up, whole, on cells; also called CEACAM6-S43R) KLTIESTPFNVAEGKEVLLLAHNLPQNRIGYSWYKGERVDGNRLIVGYVIGTQQATPGPAYSGRETIYPNASLLIQNVTQNDTGFYTLQVIKSDLVNEEATGQFHVYPELPKPSISSNNSNPVEDKDAVAFTCEPEVQNTTYLWWVNGQSLPVSPRLQLSNGNMTLTLLSVKRNDAGSYECEIQNPASANRSDPVTLNVLYGPDVPTISPSKANYRPGENLNLSCHAASNPPAQYSWFINGTFQQSTQELFIPNITVNNSGSYMCQAHNSATGLNRTTVTMITVSG | binding result | no binding
CCM6-L44Q (CEACAM6 with 44L changed to 44Q) (receptor, human, UniProt P40199 35-320, looked up, whole, on cells; also called CEACAM6-L44Q) KLTIESTPFNVAEGKEVLLLAHNLPQNRIGYSWYKGERVDGNSQIVGYVIGTQQATPGPAYSGRETIYPNASLLIQNVTQNDTGFYTLQVIKSDLVNEEATGQFHVYPELPKPSISSNNSNPVEDKDAVAFTCEPEVQNTTYLWWVNGQSLPVSPRLQLSNGNMTLTLLSVKRNDAGSYECEIQNPASANRSDPVTLNVLYGPDVPTISPSKANYRPGENLNLSCHAASNPPAQYSWFINGTFQQSTQELFIPNITVNNSGSYMCQAHNSATGLNRTTVTMITVSG | binding result | no binding
